Value source: ChEMBL document CHEMBL4152349

assay: Cmax in cynomolgus monkey at 5 mg/kg, po by UHPLC and ESI mass spectrometry
Type: ADME, organism-based, Macaca fascicularis
Design: dose 5 mg/kg, route oral
experimental_setup: in vivo
experimental_readout: Cmax (ng/mL)

(a) C[C@@H]1CN(CC(=O)N2CC(C)(C)c3nc(CO)c(Cc4ccc(F)cc4)cc32)[C@@H](CN2CCOC[C@H]2C)CN1
(b) C[C@@H]1CN(CC(=O)N2CC(C)(C)c3ncc(Cc4ccc(F)cc4)cc32)[C@@H](CN2CCOC[C@H]2C)CN1
Exercise: // task: argmin of Cmax over [ a , b ] # reply format: chosen label
Solution: b

###

assay: Oral bioavailability in Sprague-Dawley rat at 10 mg/kg by UHPLC and ESI mass spectrometry
Type: ADME, organism-based
experimental_setup: in vivo
experimental_readout: bioavailability (%)
Give just the number in %; leave the unit off.

Exercise: Look up and state reported bioavailability for C[C@@H]1CN(CC(=O)N2CC(C)(C)c3nc(CO)c(Cc4ccc(F)cc4)cc32)[C@@H](CN2CCOC[C@H]2C)CN1
Solution: 29

###

assay: Oral bioavailability in Balb/c mouse at 10 mg/kg by UHPLC and ESI mass spectrometry
Assay type: ADME, organism-based
experimental_setup: in vivo
experimental_readout: bioavailability (%)

(I) C[C@@H]1CN(CC(=O)N2CC(C)(C)c3ncc([C@@H](O)c4ccc(F)cc4)cc32)[C@@H](CN2[C@H](C)COC[C@H]2C)CN1
(II) C[C@@H]1CN(CC(=O)N2CC(C)(C)c3nnc(Cc4ccc(F)cc4F)cc32)[C@@H](CN2Cc3ccccc3C2=O)CN1
Exercise: // task: argmin of bioavailability over [ I , II ] # reply format: chosen label
Solution: II
(II: 2%, I: 31%)

###

measurement_target: UniProt:P08684
Sequence (P08684 whole entry): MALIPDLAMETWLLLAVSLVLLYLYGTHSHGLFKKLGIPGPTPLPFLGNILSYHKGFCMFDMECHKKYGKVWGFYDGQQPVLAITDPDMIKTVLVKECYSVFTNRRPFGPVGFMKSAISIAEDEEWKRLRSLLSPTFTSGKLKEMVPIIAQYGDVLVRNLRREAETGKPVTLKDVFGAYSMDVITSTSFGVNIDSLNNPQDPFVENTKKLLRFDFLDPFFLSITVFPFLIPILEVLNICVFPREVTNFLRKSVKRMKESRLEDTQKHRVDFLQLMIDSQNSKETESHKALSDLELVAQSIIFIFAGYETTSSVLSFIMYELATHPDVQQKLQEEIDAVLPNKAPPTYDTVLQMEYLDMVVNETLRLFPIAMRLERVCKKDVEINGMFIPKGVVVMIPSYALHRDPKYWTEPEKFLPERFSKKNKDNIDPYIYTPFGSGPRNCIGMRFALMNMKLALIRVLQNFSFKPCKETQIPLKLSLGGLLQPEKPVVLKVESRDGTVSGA
assay: in vitro
experimental_setup: human CYP3A4 supersomes
experimental_readout: half-life at 40 min, 1 µM (min)

C[C@@H]1CN(CC(=O)N2CC(C)(C)c3nnc(Cc4ccc(F)cc4F)cc32)[C@@H](CN2Cc3cc(F)ccc3C2=O)CN1	37
C[C@@H]1CN(CC(=O)N2CC(C)(C)c3nnc(Cc4ccc(F)cc4)cc32)[C@@H](CN2Cc3ccccc3C2=O)CN1	38
C[C@@H]1CN(CC(=O)N2CC(C)(C)c3nnc(Cc4ccc(F)cc4F)cc32)[C@@H](CN2Cc3ccc(F)cc3C2=O)CN1	41
C[C@@H]1CN(CC(=O)N2CC(C)(C)c3nnc(Cc4ccc(F)cc4F)cc32)[C@@H](CN2Cc3cc(C#N)ccc3C2=O)CN1	42
C[C@@H]1CN(CC(=O)N2CC(C)(C)c3nnc(Cc4ccc(F)cc4F)cc32)[C@@H](CN2Cc3ccc(C#N)cc3C2=O)CN1	34

###

assay: Volume of distribution at steady state in Balb/c mouse at 5 mg/kg, iv or 10 mg/kg, po by UHPLC and ESI mass spectrometry
Assay type: ADME, organism-based
experimental_setup: in vivo, read-out: Vdss
experimental_readout: Vd (L/kg)
Give just the number in L/kg; leave the unit off.

Exercise: Look up and state reported Vd for C[C@@H]1CN(CC(=O)N2CC(C)(C)c3nc(CO)c(Cc4ccc(F)cc4)cc32)[C@@H](CN2CCOC[C@H]2C)CN1
Solution: 2.7
